All values here come from the supplement of paper PMC9170038.

tested on: MS2 coat protein; assay: apparent KD of MS2 coat protein; designed switch direction (-1 OFF switch, 1 ON switch): -1; higher = weaker reporter binding; conditions: Eterna round: R95; input ligand: none
Quantity Measured: apparent KD of MS2 coat protein (nM)
Answer in nM, number only, no unit symbol.

{"Residues": "GAGUGACAUGAGGAUCACCCAUGUGAGGAUAUCGGACGGACCAAAUUAACAAUAGAAGCGAGAAGGCACAUAAG [Exclusion 1 V11] (puzzle: Exclusion 1)", "Val": 81.3}

-- ask Looking for the measured apparent KD of MS2 coat protein of AUGAGGUUAGGAUAUACAUGAGGAUCACCCAUGUUGGAGAAGGAAGUGUAAGUAGCGAGUAGAAGGAACGGAGC [JR_Exclu3_Sub060] (puzzle: Exclusion 3) , can you help?
-- reply 48.4

-- ask Quick one: UUUUUAGUGCUUUUUAAGUACAUGAGGAUCACCCAUGUACUUGUCUGGUGGUCCGGACAAGCUUUUUGCUCGUCUUG [Trying Again] (puzzle: Sensor v3, turn-off variant 1)
-- reply 48.2

-- ask Quick one: UAUUAACAAGUAAGAUCCCACAUGAGGAUCACCCAUGUGCUCGUCUUAUAAGGUACUGUGACGAAAGUCACGGUACC [Sensor 3, v1 - 87] (puzzle: Sensor v3, turn-off variant 1)
-- reply 13

-- ask Quick one: GUGUAGUCAGGAUAUACAUGAGGAUCACCCAUGUGAAUAAGAUAGAAUAAGAUAAAGUGUAGAAGGGACAGUGU [Excluse me!!! 4 - Jieux - Exclusion 3] (puzzle: Exclusion 3)
-- reply 35.9

====

system: MS2 coat protein; experiment: apparent KD of MS2 coat protein; designed switch direction (-1 OFF switch, 1 ON switch): -1; higher = weaker reporter binding; settings: input ligand: FMN 200 uM
Response field class: enum, chosen by comparing apparent KD of MS2 coat protein against one: < 60 nM; two: ≥ 60 nM and < 300 nM; three: ≥ 300 nM

{"Residues": "UUUGUUUAUGUAGGAUAUGCCUGGCGUGCCUUUGCAGAAGGACAUGAGGAUCACCCAUGUAACAUGAGGCUCACCCAUGUCGCG [salish99_ExNG1_r04_112] (Eterna round: R96, puzzle: Exclusion NG 1)", "Class Name": "two"}
{"Residues": "CAUAUUCGAGGAUAUGCCUGAUGUCCUUAUGGAGCCCAUUCACAUGAGGAUCACCCAUGUAGAAGGCGGAUGCG [Eternabot (L1) Solution 37] (Eterna round: R97, puzzle: Exclusion 2)", "Class Name": "one"}
{"Residues": "CAGUUUUGAGUGAGGAUAUGUGAUCCAAAGGGUCAACAGAAGGCACAUGAGGAUCACCCAUGUAAUCCAAUUGG [Eternabot (L2) Solution 37] (Eterna round: R97, puzzle: Brourd's mod of Exclusion 4)", "Class Name": "three"}

-- ask Band assignment needed for CAGGAUAGAGGAUAUACAUAGAUACAGAUUCAUGUGAUCCUACAUGAGGAUCACCCAUGUAGAAGGCUAUCCUG [Fiskers Ex 2 - 21] (Eterna round: R96, puzzle: Exclusion 2) please.
-- reply two

-- ask Quick one: ACACAAAGCUAGGAUAUCGAGGCAUCUUCGGCCCGAGAAGGAGCCACAUGAGGAUCACCCAUGUGGUGAUCCUG [eternacac ex6r4 sub4] (Eterna round: R97, puzzle: Exclusion 6)
-- reply two

====

The reader will find reported apparent KD of K4 kissing-loop reporter values listed item by item below.
system: K4 kissing-loop RNA reporter; assay: apparent KD of K4 kissing-loop reporter; higher = weaker reporter binding; details: Eterna round: R107; input ligand: FMN 200 uM;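 further: bound reporter read as fluorescence of individual clusters on recovered sequencing chips by microscopy, with normalized cluster intensities fitted with a binding model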
Answer in nM, number only, no unit symbol.

// known answers, use as guide
{"Residues": "CGCAAGCAGCCAGUGAUGUUGGCCGCCUUGCGAGGACCGGUACGGCCGCCACUCGAAGGCGGCUACUGAUAAUCCGUCUAACGGA [KL-XTryp-A15]", "apparent KD of K4 kissing-loop reporter [nM]": 107}
{"Residues": "AAACAUUGGUCUGAUACCAGCUGAUCGGAAACGAUCUUGCUGGAGUGAUGUUCCAGGAAAAGCCCUUGGCAGCAGACCGAUGAAA [MAT - Same State Theophlline B - Mod of Eli - D24]", "apparent KD of K4 kissing-loop reporter [nM]": 938}

Now take the following sequence into account.
-- ask Looking for the measured apparent KD of K4 kissing-loop reporter of ACUAUCCGUAUAUAUAAGAUAGCUGGAGAUACCAGUUCAAUCUUGAACCCUUGGCAGCUCACCACCAAGUGAUGUUUGGCACGAC [theeternabot_sameState_KL_Theo_A_42] , can you help?
-- reply 326

====

system: MS2 coat protein; assay: apparent KD of MS2 coat protein; designed switch direction (-1 OFF switch, 1 ON switch): -1; higher = weaker reporter binding; details: input ligand: microRNA oligo, concentration not stated
Quantity Measured: apparent KD of MS2 coat protein
# include the unit after the value

// known answers, use as guide
{"Residues": "GGCCCGCGCGGGCCCGGGCCCGGGACAUGAGGAUCACCCAUGUAGGAUAUCCGGCCCGCCGGGCCGGAGAAGGACAUGGGCCCG [-48.9, -45.2 kcal, 17% A] (Eterna round: R96, puzzle: Exclusion NG 3)", "Measured Target": "MS2 coat protein", "apparent KD of MS2 coat protein": "11.1 nM"}
{"Residues": "AAGCAUUGCCAAAGGUAGUGCUUAACAUGAGGAUCACCCAUGUAGGAUAUGGUAGGCAAAGCUUACCAGAAGGACAUGAUAAUU [Mat - Exclusion NG 3 - Mod of JL - D14] (Eterna round: R96, puzzle: Exclusion NG 3)", "Measured Target": "MS2 coat protein", "apparent KD of MS2 coat protein": "61.5 nM"}

Now take the following sequence into account.
-- ask // map AACAAAAGCGUAGGAUAUGACUGGGCUCAUGCCUAACAUAACUACAAACAUGAGGAUCACCCAUGUCAGAAGGACGAAUAAAAU [Isesbequti] (Eterna round: R96, puzzle: Exclusion NG 2) to recorded apparent KD of MS2 coat protein (system: MS2 coat protein)
-- reply 57.5 nM

====

test system: MS2 coat protein; experiment: apparent KD of MS2 coat protein, switch ON state; designed switch direction (-1 OFF switch, 1 ON switch): -1; higher = weaker reporter binding; details: FMN input: 0 or 200 uM; Eterna round: R93 (includes R88 designs)
Quantity Measured: apparent KD of MS2 coat protein (µM)
Answer in µM, number only, no unit symbol.

// known answers, use as guide
{"Residues": "AACUGACAUGAGGAUCACCCAUGUCAGGAUAUGCUUAAUAAAAAAAAAAAAAAAUGAUGCAGAAGGGAUAUGGG [Amethyst 56]", "apparent KD of MS2 coat protein (µM)": 0.0237}
{"Residues": "AAAAAGUGAGGAUAUGGAAAAAAAAAAAAAAAAAAAAAAAACCAGAAGGCACAUGAGGAUCACCCAUGUAAAAA [low kcal]", "apparent KD of MS2 coat protein (µM)": 0.0386}
{"Residues": "AGCAAACAUGAGGAUCACCCAUGUGAGGAUAUGAACGAAAAUAAAUAAAAAUAAAAGUUCAGAAGGCACGAGCA [66%, Wbt, 26]", "apparent KD of MS2 coat protein (µM)": 0.0304}
{"Residues": "AGAAUACAUGAGGAUCACCCAUGUGAGGAUAUGCAAAUAAAAAUAAAAUAAAAUAAUUGCAGAAGGCACGAAAG [EX 1 May 23]", "apparent KD of MS2 coat protein (µM)": 0.0444}
{"Residues": "AAAAAGUGAGGAUAUGGAAAAAAAAAAAAAAAAAAAAAAAACCAGAAGGCACAUGAGGAUCACCCAUGUAAAAA [exclusive 2]", "apparent KD of MS2 coat protein (µM)": 0.0386}

Now take the following sequence into account.
-- ask // map AAAAAGGGAGGAUAUACAUGAGGAUCACCCAUGUGAAAGACGAAAAAGAGUCUAAAAAGUAGAAGGCCCAAAAA [65%, Moding Exclusion3-cac2, 9] to recorded apparent KD of MS2 coat protein (system: MS2 coat protein)
-- reply 0.0335

====

tested on: MS2 coat protein; test: apparent KD of MS2 coat protein; designed switch direction (-1 OFF switch, 1 ON switch): 1; higher = weaker reporter binding; conditions: input ligand: FMN 200 uM
Quantity Measured: apparent KD of MS2 coat protein (µM)
Answer in µM, number only, no unit symbol.

{"Residues": "UUGAGAUGUACAGGAUAUGGUGAGGAUCACCCACUAGAAGGGUGCACAUGUGAAUCGGACAUGAGGAUCACCCAUGUAGGGCGU (Eterna round: R96, puzzle: Same State NG 1)", "Val": 0.187}
{"Residues": "GCUCGCACGAUGACCCACAUGAGGAUCACCCAUGUGUGUGGGCAGGAUAUCUAGAUUAAGGAUGUAGAGAAGGGUUGAGCGAGC [SameState NG3 #24] (Eterna round: R96, puzzle: Same State NG 3)", "Val": 0.513}
{"Residues": "CGUCGUUUGAUAGGAUAUCGCUAUACAUGAGGAUCACCCAUGUUUACCACGCUGGUUUUUCAUUCCGAGAAGGAUUCUGAUGUU [salish99_SSNG02_r04_021] (Eterna round: R96, puzzle: Same State NG 2)", "Val": 0.0347}
{"Residues": "CGCAUCCUUGUUACAUGAGGAUCACCCAUGUUUUCGAGUGGAGAGGAUAUCGUAACAGUAUUUUUCGAGAAGGCUCUAUAGUAU [JR_SSNG3_Sub081] (Eterna round: R96, puzzle: Same State NG 3)", "Val": 0.0521}
{"Residues": "GCGAAGAGGUAAGGAUAUUCAUGGCAUAGACAUGAGGAUCACCCAUGUAGGAGACGAAUUAGAAGGAAGAAGGUACCAGGACGC [AK SSNG2-V2-18] (Eterna round: R96, puzzle: Same State NG 2)", "Val": 0.137}

-- ask Looking for the measured apparent KD of MS2 coat protein of UGAACCUUCACAGGAUAUCAUGCGAAAAUUGCGUGAGAAGGGUGGAUGUGGUGUUCAUAGUUGCACAUGAGGAUCACCCAUGUA [SameState NG1 #51] (Eterna round: R96, puzzle: Same State NG 1) , can you help?
-- reply 0.115

-- ask Quick one: GGUACAAAUACAGGAUAUGCUAUCCUUUGGGUAGCAGAAGGGUGGUAACAUGAGGAUCACCCAUGUGUGCCAGGGCGUGAGCCC [JL SSNG1 1.98] (Eterna round: R96, puzzle: Same State NG 1)
-- reply 0.387

-- ask Quick one: UUGCGGAAUUAAGGAUAUUGAGUACAUAUGUUUAACAUGAGGAUCACCCAUGUGGGUUGCGGUAUCGAGAAGGUAACUUACUAC [salish99_SSNG2_r04_803] (Eterna round: R96, puzzle: Same State NG 2)
-- reply 0.11

-- ask Quick one: UUUAGUUGCGGGCAGGAUAUGUAUUAAAAUACAUGAGGAUCACCCAUGUGCGGGUAUAACACCCGACAGAAGGGCCAAUCGCGAC [Laonerce] (Eterna round: R96, puzzle: Same State 2)
-- reply 0.0245
